# Test system: TNF-α (degradation of IkB in HeLa cells or A431 cells)
# assayRemarks: Human cell-based assay: inhibition of TNF-α induced degradation of IkB
# setupConditions: read-out: Inhibition at Various Compound Concentrations, 5 μM
reportedEndpoint: inhibition at 5 µM

Study these solved cases before continuing.
{"columns": ["structureAsSmiles", "result"],
 "data": [
  ["O=C1COc2ccc(cc2)C[C@@H](C(=O)N[C@@H](CCc2ccccc2)C(=O)O)NC(=O)[C@@H](CCc2ccccc2)NC(=O)[C@H](Cc2ccc(-c3ccccc3)cc2)NC(=O)[C@@H](Cc2cccs2)N1", "10 to 50%"],
  ["O=C1COc2ccc(cc2)C[C@@H](C(=O)N[C@@H](Cc2ccccc2)C(=O)O)NC(=O)[C@@H](CCc2ccccc2)NC(=O)[C@H](Cc2ccc(-c3ccccc3)cc2)NC(=O)[C@@H](CCc2ccccc2)N1", "50 to 80%"],
  ["COc1ccc(-c2ccc(C[C@@H]3NC(=O)[C@H](Cc4cccs4)NC(=O)COc4ccc(cc4)C[C@@H](C(=O)O)NC(=O)[C@H](Cc4ccccc4)NC3=O)cc2)cc1", "50 to 80%"],
  ["O=C1COc2ccc(cc2)C[C@@H](C(=O)O)NC(=O)[C@H](Cc2ccccc2)NC(=O)[C@H](Cc2ccc(-c3ccccc3)cc2)NC(=O)[C@H](Cc2cccs2)N1", "< 10%"],
  ["O=C1COc2ccc(cc2)C[C@@H](C(=O)N[C@@H](Cc2ccccc2)C(=O)O)NC(=O)[C@@H](CCc2ccccc2)NC(=O)[C@H](Cc2ccc(-c3ccccc3)cc2)NC(=O)[C@@H](Cc2cccs2)N1", "50 to 80%"],
  ["O=C1COc2ccc(cc2)C[C@@H](C(=O)NC2(C(=O)O)CC2)NC(=O)[C@H](Cc2ccccc2)NC(=O)[C@@H](Cc2ccc(-c3ccccc3)cc2)NC(=O)[C@H](Cc2cccs2)N1", "10 to 50%"]
]}

Task item: What does the data say about its inhibition at 5 µM? Entry: O=C1COc2ccc(cc2)C[C@@H](C(=O)O)NC(=O)[C@H](Cc2ccccc2)NC(=O)[C@H](Cc2ccc(-c3ccc(C(=O)OCc4ccccc4)cc3)cc2)NC(=O)[C@H](Cc2cccs2)N1
Reply: 10 to 50%

Task item: O=C1COc2ccc(cc2)C[C@@H](C(=O)NC2(C(=O)O)CC2)NC(=O)[C@@H](CCc2ccccc2)NC(=O)[C@H](Cc2ccc(-c3ccccc3)cc2)NC(=O)[C@@H](Cc2cccs2)N1 , same question.
Reply: < 10%

Task item: Follow-up entry: O=C(O)CN(Cc1ccccc1)C(=O)[C@@H]1Cc2ccc(cc2)OCC(=O)N[C@H](Cc2cccs2)C(=O)N[C@@H](Cc2ccc(-c3ccccc3)cc2)C(=O)N[C@H](CCc2ccccc2)C(=O)N1
Reply: 10 to 50%

Task item: Then what about the compound O=C1COc2ccc(cc2)C[C@@H](C(=O)NCCO)NC(=O)[C@H](Cc2ccccc2)NC(=O)[C@@H](Cc2ccc(-c3ccccc3)cc2)NC(=O)[C@H](Cc2cccs2)N1 ?
Reply: < 10%
